Procedure summary: UV-VIS screening of binding and demetallation of Ni(II)-protoporphyrin (IX)
Assay type: biochemical
Measurement context: crude protein lysate, 50 μM porphyrin, 24 hrs, room temperature
Endpoint name: reduction of Ni(II)-protoporphyrin (IX) Soret band (specific demetallation)

Molecule	Recorded value
UreE: nickel chaperone from E. aerogenes, SEQ ID NO 5 (protein, Enterobacter aerogenes) MLYLTQRLEIPAAATASVTLPIDVRVKSRVKVTLNDGRDAGLLLPRGLLLRGGDVLSNEEGTEFVQVIAADEEVSVVRCDDPFMLAKACYHLGNRHVPLQIMPGELRYHHDHVLDDMLRQFGLTVTFGQLPFEPEAGAYASESHGHHHAHHDHHAHSH	remained unchanged
NikR: metalloregulator from H. pylori, SEQ ID NO 7 (protein, listed as Escherichia coli) MRLLHTMLRVGDLQRSIDFYTKVLGMKLLRTSENPEYKYSLAFVGYGPETEEAVIELTYNWGVDKYELGTAYGHIALSVDNAAEACEKIRQNGGNVTREAGPVKGGTTVIAFVEDPDGYKIELIEEKDAGRGLGN	remained unchanged
